# System: mice bearing PSMA-expressing LNCAP cancer xenografts
# test-description: Biodistribution of 68Ga-labeled compounds
# Assay type: in vivo
# measurement-conditions: 1 h post-injection
measured-attribute: Muscle uptake (% ID/g)
Numeric answer only, unit % ID/g assumed.

Muscle uptake of O=C([O-])CN1CCN(CC(=O)[O-])CCN(CC(=O)NCC2CCC(C(=O)NC(Cc3ccc4cc5ccccc5cc4c3)C(=O)NCCCCC(NC(=O)NC(CCC(=O)O)C(=O)O)C(=O)O)CC2)CCN(CC(=O)[O-])CC1.[68Ga+3] (centres unmarked) [^68Ga-HTK03027] on mice bearing PSMA-expressing LNCAP cancer xenografts?
0.48

Muscle uptake of O=C([O-])CN1CCN(CC(=O)[O-])CCN(CC(=O)NCCCC[C@H](NC(=O)CNC(=O)CCCc2ccc(I)cc2)C(=O)NC[C@H]2CC[C@H](C(=O)N[C@@H](Cc3ccc4ccccc4c3)C(=O)NCCCC[C@H](NC(=O)N[C@@H](CCC(=O)O)C(=O)O)C(=O)O)CC2)CCN(CC(=O)[O-])CC1.[68Ga+3] [^68Ga-HTK03024] on mice bearing PSMA-expressing LNCAP cancer xenografts?
1.10

Where do the numbers come from? From patent US20200339625A1.
